Measured EMax, OVCAR 5 cells (cAMP), listed per entry.
systemName: T1, RXFP1 receptor (UniProt Q9HBX9 1-757, limits assumed)
T1 sequence (looked up): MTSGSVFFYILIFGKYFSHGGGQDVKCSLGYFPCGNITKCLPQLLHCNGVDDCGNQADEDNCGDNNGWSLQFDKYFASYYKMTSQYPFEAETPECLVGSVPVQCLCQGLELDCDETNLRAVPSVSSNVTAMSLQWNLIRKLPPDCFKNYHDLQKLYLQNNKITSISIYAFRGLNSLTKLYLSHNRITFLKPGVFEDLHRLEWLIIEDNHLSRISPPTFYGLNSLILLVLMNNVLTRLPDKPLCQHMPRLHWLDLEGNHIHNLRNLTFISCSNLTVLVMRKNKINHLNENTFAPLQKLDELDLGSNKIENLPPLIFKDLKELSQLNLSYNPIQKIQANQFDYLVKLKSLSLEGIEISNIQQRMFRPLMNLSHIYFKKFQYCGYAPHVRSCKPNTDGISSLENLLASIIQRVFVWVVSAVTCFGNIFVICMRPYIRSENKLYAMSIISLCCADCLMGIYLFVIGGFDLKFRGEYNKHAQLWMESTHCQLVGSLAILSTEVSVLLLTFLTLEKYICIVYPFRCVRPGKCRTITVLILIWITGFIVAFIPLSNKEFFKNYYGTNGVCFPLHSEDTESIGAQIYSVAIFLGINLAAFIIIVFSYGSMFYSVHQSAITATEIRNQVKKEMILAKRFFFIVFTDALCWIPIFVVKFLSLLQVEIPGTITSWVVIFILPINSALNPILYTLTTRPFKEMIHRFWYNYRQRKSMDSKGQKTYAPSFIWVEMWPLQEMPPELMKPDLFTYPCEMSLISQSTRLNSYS
protocolSummary: cell-based or functional assay
*1 amine or outer side, *2 acyl side, *3 side chain or, on linkers, in order; H or OH if unused. Primed or numbered codes have the meaning given here. Side-chain parts run from the residue outwards. [ ]: non-standard residue; d: D form. The star is where a group is joined. PEG24′ = polyethylene glycol spacer of 24 ethoxy units; γGlu = O=C(O)[C@H](CCC(=O)[*:2])N[*:1]; Stearoyl = CCCCCCCCCCCCCCCCCC(=O)*; Palmitoyl = CCCCCCCCCCCCCCCC(=O)*; Nle = CCCC[C@H](N)C(=O)O; PEG2′ = PEG2 spacer unit; PEG2″ = not defined here; Aib = CC(C)(N)C(=O)O
quantityKind: EMax, OVCAR 5 cells (cAMP) (%)

binder	quantityKind	unitLabel	valueReported
Ac-LEGREKVRAQI[Aib][Aib]EG[Nle]STWS[Aib]RK[PEG2″][PEG2″]K([γGlu-γGlu-γGlu-Palmitoyl])-NH2 [peptide of SEQ ID NO: 11]	EMax, OVCAR 5 cells (cAMP)	%	89
Ac-LEGREKVRAQI[Aib][Aib]EG[Nle]STWS[Aib]RKK(Ac)K([PEG2′-PEG2′-PEG2′-Stearoyl])-NH2 [peptide of SEQ ID NO: 52]	EMax, OVCAR 5 cells (cAMP)	%	98
Ac-LEGREKVRAQI[Aib][Aib]EGMSTWS[Aib]RK[PEG24′]K([γGlu-γGlu-γGlu-Palmitoyl])-NH2 [peptide of SEQ ID NO: 47]	EMax, OVCAR 5 cells (cAMP)	%	100

Origin of the recorded values: patent US20190233493A1
